test: in vivo acute oral toxicity (OECD up and down); conditions: male, B6D2F1, mouse, 2000 mg/kg
Endpoint: LD50 at 14 days

What value of measured LD50 at 14 days is listed for C/C(=N\NC(N)=S)[C@H]1CC[C@H]2[C@@H]3CC=C4CC(O)CC[C@]4(C)[C@H]3CC[C@]12C (stereo partly shown) [Compound 8] ?
> 2000 mg/kg

* * *

tested on: L. infantum (MHOM/BR/2002/LPC-RPV) promastigotes; assay: in vitro anti-Leishmania activity, promastigotes, resazurin; type: cell-based, Leishmania infantum; details: Table 1S; read-out: IC50 ± %SD (µM) promastigotes L. infantum
Endpoint: IC50

C=CCn1c(-c2ccc(Cl)cc2)csc1=NN=C(C)[C@H]1CC[C@H]2[C@@H]3CC=C4C[C@@H](O)CC[C@]4(C)[C@H]3CC[C@]12C ... > 25 µM
CSc1ccc(/C=C/C(=O)[C@H]2CCC3C4CC=C5C[C@@H](O)CC[C@]5(C)C4CC[C@@]32C)cc1 (stereo partly drawn) ... > 25 µM

Consider the additional compound presented here.
Bench note: what IC50 did C[C@]12CC[C@H]3[C@@H](CC=C4CC(O)CC[C@@]43C)[C@@H]1CC[C@@H]2C(=O)/C=C/C=C/c1cccs1 (stereo partly drawn) show?
> 25 µM

* * *

test system: J774.1 murine macrophages; assay: nonspecific cytotoxicity on mammalian cells, MTT; format: cell-based; settings: ratio IC50 murine macrophages / IC50 T. cruzi epimastigotes
Threshold check on SI J774.1/T. cruzi: at or above 8 gives YES, strictly below gives NO.

C=CCn1c(C(=O)NCC(=O)OCC)cs/c1=N/N=C(/C)[C@@H]1CC[C@H]2[C@@H]3CC=C4CC(O)CC[C@]4(C)[C@H]3CC[C@]12C (stereo partly shown) ... YES
C/C(=N\NC(N)=S)[C@H]1CC[C@H]2[C@@H]3CC=C4CC(O)CC[C@]4(C)[C@H]3CC[C@]12C (stereo partly shown) ... YES
O=C(Cn1ccnc1[N+](=O)[O-])NCc1ccccc1 [Benznidazole, reference compound] ... YES
CCCCCCCCCCCCCCCCOP(=O)([O-])OCC[N+](C)(C)C [Miltefosine, reference compound] ... NO
C=CCNC(=S)N/N=C(\C)[C@H]1CC[C@H]2[C@@H]3CC=C4CC(O)CC[C@]4(C)[C@H]3CC[C@]12C (stereo partly shown) ... NO

Would you kindly look at the next entry?
Please tell me: is the compound C/C(=N\NC(=S)Nc1ccccc1)[C@H]1CC[C@H]2[C@@H]3CC=C4CC(O)CC[C@]4(C)[C@H]3CC[C@]12C (stereo partly shown) at or over 8 in terms of SI J774.1/T. cruzi?
NO
